# Tested on: PRKCE
# Test context: concentration: 1 μM, replicates: in singlicate; n = 1;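 note: KINOMEscan kinase panel screen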
Parameter measured: %Inh (%)

compound="COc1cccc(NC(=O)NCCNc2ccnc(Nc3ccc(F)cc3)n2)c1 [GSK1379879]" measured_target=PRKCE parameter_measured=%Inh numeric_readout=18
compound="Cn1cc(-c2ccc3c(c2)CCN3C(=O)Cc2cc(F)cc(C(F)(F)F)c2)c2c(N)ncnc21 [GSK2635225]" measured_target=PRKCE parameter_measured=%Inh numeric_readout=1
compound="CN(C)CCNS(=O)(=O)c1ccc(-c2ccnc3[nH]ccc23)cc1 [GSK977620]" measured_target=PRKCE parameter_measured=%Inh numeric_readout=88
compound="CN(C)c1ncnc2nc[nH]c12 [SKF-31736]" measured_target=PRKCE parameter_measured=%Inh numeric_readout=3
compound="CN(c1ccc(NC(=O)Nc2cccc(Cl)c2)cc1)c1ccnc(N)n1.Cl [GW830707]" measured_target=PRKCE parameter_measured=%Inh numeric_readout=28

---

# System: PAK3
# Test context: concentration: 1 μM, replicates: in singlicate; n = 1
Hi, to clarify the labels: Satisfied covers %Inh from 30% upward, Not satisfied covers anything below 30%.

compound="COc1ccc(C)c(Nc2ccnc(Nc3ccc(-c4cnc[nH]4)cc3)n2)c1.Cl [GW784041]" classification="Not satisfied"
compound="COC(=O)Nc1nc2ccc(Oc3ccc(NC(=O)Nc4cc(C(F)(F)F)ccc4F)cc3)cc2[nH]1.Cl [GW654607]" classification="Not satisfied"
compound="O=C(O)C(F)(F)F.O=c1[nH]ccc2nc(N[C@@H]3CCNC3)nc(Nc3ccc4c(c3)S(=O)(=O)CC4)c12 [GSK2181306]" classification=Satisfied
compound=CN(c1ccc(F)c(NC(=O)c2cccc(OC(C)(C)C#N)c2Cl)c1)c1ccc2nc(NC(=O)C3CC3)sc2n1 classification="Not satisfied"
compound="CN(c1ccc(NC(=O)N2CCN(CCCN3CCOCC3)CC2)cc1)c1ccnc(Nc2ccc(CS(C)(=O)=O)cc2)n1.Cl [GW830899]" classification="Not satisfied"
compound="COC(=O)Nc1nc2ccc(Oc3ccc(CC(=O)Nc4cc(C(F)(F)F)ccc4F)cc3)cc2[nH]1 [GW680903]" classification="Not satisfied"
compound="CN1CCN(Cc2ccc(NC(=O)Nc3ccc(N(C)c4ccnc(Nc5ccc(CS(C)(=O)=O)cc5)n4)cc3)cc2)CC1.Cl [GW827654]" classification=Satisfied
compound="c1ccc(Oc2ccc(Nc3ccnc4cc(-c5ccc(CN6CCCCC6)o5)ccc34)cc2)nc1 [GW567143]" classification=Satisfied
compound="COc1cccc(-c2nc(-c3ccccc3)[nH]c2-c2ccncc2)c1 [SB-610250]" classification="Not satisfied"
compound="Cl.Cl.NCC(NC(=O)c1cc(-c2cccnc2)c(-c2ccnc3[nH]ccc23)s1)c1ccccc1 (stereo not drawn) [GSK1323434]" classification=Satisfied
compound="Cn1cc(-c2ccc3c(c2)CCN3C(=O)Cc2cc(F)cc(C(F)(F)F)c2)c2c(N)ncnc21 [GSK2635225]" classification="Not satisfied"
compound="O=C1NC(=O)C(c2ccccc2Cl)=C1Nc1cccc(Cl)c1 [SB-342409]" classification="Not satisfied"

---

# Test system: CTK
# Construct: gene MATK
# Test context: concentration: 1 μM, replicates: in singlicate; n = 1
%Inh: recorded values
Parameter measured: %Inh (%)

compound=CN1CCN(Cc2ccc(NC(=O)Nc3ccc(N(C)c4ccnc(Nc5ccc(CS(C)(=O)=O)cc5)n4)cc3)cc2)CC1.Cl numeric_readout=16
compound="Cc1ccc(-c2ccc3occ(-c4ccc(S(C)=O)cc4)c3c2)nn1 (centres unmarked)" numeric_readout=0
compound=CN(C)c1ncnc2nc[nH]c12 numeric_readout=36
compound=Cc1ccc(NC(=O)c2ccnc(N3CCCCC3)c2)cc1-c1ccc(C(=O)NCC2CC2)cc1 numeric_readout=25
compound=O=C(O)C(F)(F)F.O=c1[nH]ccc2nc(N[C@@H]3CCNC3)nc(Nc3cc(Cl)cc(Cl)c3)c12 numeric_readout=0
